Molecular target: HSP27 ACD domain (α-crystallin domain), monomeric (human)
Sequence (P04792 76-184): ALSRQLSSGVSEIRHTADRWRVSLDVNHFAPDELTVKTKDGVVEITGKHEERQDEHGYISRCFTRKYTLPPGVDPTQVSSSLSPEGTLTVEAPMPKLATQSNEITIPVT
Test: ITC
pKd: −log10 of the molar value.
Property Measured: pKd

{"Binder": "EITIPVTHE [HSP27 IXI peptide 178-…-186 (F185H), without biotin]", "Measured Value": 4.84}
